Biological target: rat NaP2b (SLC34A2) (Rattus norvegicus, UniProt Q9JJ09)
Construct: host or cells: HEK293
Sequence (Q9JJ09 1-695): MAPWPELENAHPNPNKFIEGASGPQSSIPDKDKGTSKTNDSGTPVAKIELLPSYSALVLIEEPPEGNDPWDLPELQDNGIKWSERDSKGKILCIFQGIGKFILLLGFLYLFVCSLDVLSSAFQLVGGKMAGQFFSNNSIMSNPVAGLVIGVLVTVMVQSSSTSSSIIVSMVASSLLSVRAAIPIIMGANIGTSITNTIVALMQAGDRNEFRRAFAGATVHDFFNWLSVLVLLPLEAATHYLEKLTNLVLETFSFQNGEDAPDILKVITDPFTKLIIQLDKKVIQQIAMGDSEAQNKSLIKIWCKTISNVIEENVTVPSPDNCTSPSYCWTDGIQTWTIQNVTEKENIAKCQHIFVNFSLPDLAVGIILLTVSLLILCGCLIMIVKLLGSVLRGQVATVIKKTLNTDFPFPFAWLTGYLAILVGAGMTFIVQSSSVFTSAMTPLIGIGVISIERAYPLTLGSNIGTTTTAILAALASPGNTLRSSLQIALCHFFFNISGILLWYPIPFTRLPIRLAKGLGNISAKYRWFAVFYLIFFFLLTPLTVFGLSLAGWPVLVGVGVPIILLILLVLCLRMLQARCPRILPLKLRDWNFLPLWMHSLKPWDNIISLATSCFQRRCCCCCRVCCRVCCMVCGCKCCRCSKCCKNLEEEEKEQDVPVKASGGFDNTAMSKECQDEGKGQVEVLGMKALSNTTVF
Experiment: Inhibition of NaP2b-mediated Pi (33P) uptake in transfected HEK293 cells, rat NaP2b
Format: cell-based
Conditions: 33P Pi uptake, 0.1 mM phosphate, value given as pIC50 range
ASSAY_ENDPOINT: IC50

O=C(O)CN(CCOCCO)C(=O)CCOCCOCCOCCOCCSCc1cccc(C(=O)Nc2ccc(N3CCCCC3)cc2-c2cc(C(=O)NCc3cccc(C(F)(F)F)c3)ccn2)c1
10 to 31.6 µM
Cc1ccc(CNC(=O)c2ccnc(-c3cc(N4CCCCC4)ccc3NC(=O)c3cccc(CSCCC(=O)O)c3)c2)cc1C
1 to 7.94 µM
CCN(CC)c1ccc(NC(=O)c2cccc(COCCOCCOCCOCCOCCOCCO)c2)c(-c2cc(C(=O)NCc3cccc(C(F)(F)F)c3)ccn2)c1
< 1 µM
CN(CCN1CCOCC1)C(=O)Cc1cccc(SCc2cccc(C(=O)Nc3ccc(N4CCCCC4)cc3-c3cc(C(=O)NCc4cccc(C(F)(F)F)c4)ccn3)c2)c1
1 to 7.94 µM
CN(CCN1CCOC[C@H]1C(=O)N(C)CCOCCOCCOCCC(=O)O)C(=O)c1cccc(C(=O)Nc2ccc(N3CCCCC3)cc2-c2cc(C(=O)N[C@H]3CCCc4ccccc43)ccn2)c1
10 to 31.6 µM

Look up IC50 for the entries below, preserving their order.
1. CN(CCN1CCOCC1)C(=O)c1cccc(C(=O)Nc2ccc(N3CCCCC3)cc2-c2cc(C(=O)NCc3cccc(C(F)(F)F)c3)ccn2)c1
2. COCCOCCOCCOCCOCCOCCOCCOCCNC(=O)CCOCCOCCOCCOCCSCc1cccc(C(=O)Nc2ccc(N3CCCCC3)cc2-c2cc(C(=O)NCc3cccc(C(F)(F)F)c3)ccn2)c1

**A:**
1: 1 to 7.94 µM; 2: 1 to 7.94 µM
